// read-out Ki, gathered for Retinoic acid receptor alpha (Homo sapiens, UniProt P10276) from published studies
Quick note: give the figure in nM, leave out the unit.

# count of solved cases: 5
Cc1ccc(C2=CCC(C)(C)c3cc(C(/C=C/c4ccc(C(=O)O)cc4)=N/O)ccc32)cc1    3000
Cc1ccc(C2=CCC(C)(C)c3cc(C(/C=C/c4ccc(C(=O)O)cc4)=N\O)ccc32)cc1    5200
CCOc1c(\C(C)=C(F)/C=C/C(C)=C/C(=O)O)cc2c(c1Cl)OC(C)(C)C=C2C(C)C    404
COc1cc2c(cc1C(/C=C/c1ccc(C(=O)O)cc1)=N/O)C(C)(C)CCC2(C)C    2000
CCCOc1c(\C(C)=C/C=C/C(C)=C/C(=O)O)cc(C(C)C)cc1C(C)C    310

For the compound CCOc1cc2c(cc1\C(CC)=C(F)/C=C/C(C)=C(\F)C(=O)O)C(C)(C)CCC2(C)C , give its measured Ki value.
930

For the compound CC/C(=C/C=C/C(C)=C/C(=O)O)c1cc2c(cc1OC)OC(C)(C)C=C2C(C)C , give its measured Ki value.
215

For the compound CCOc1cc2c(cc1\C(=C/C=C/C(C)=C/C(=O)O)CC)C(C(C)(C)C)=CCC2(C)C , give its measured Ki value.
442

For the compound CCCOc1cc2c(cc1C(=C/C=C/C(C)=C/C(=O)O)C(F)(F)F)C(C)(C)CCC2(C)C (stereo in doubt) , give its measured Ki value.
1800

For the compound CCOc1cc2c(cc1\C(=C/C=C/C(C)=C/C(=O)O)CC)C(C)=CCC2(C)C , give its measured Ki value.
578

For the compound CCCOc1cc2c(cc1\C(C)=C(F)/C=C/C(C)=C/C(=O)O)C(C(C)(C)C)=CCC2(C)C , give its measured Ki value.
1100

For the compound COc1cc2c(cc1\C(C)=C(F)/C=C/C(C)=C/C(=O)O)C(C(C)C)=CC(C)(C)O2 , give its measured Ki value.
692

For the compound CCOc1cc2c(cc1\C(CC)=C(F)/C=C/C(C)=C/C(=O)O)C(CC)=CCC2(C)C , give its measured Ki value.
180

For the compound CC1=CCC(C)(C)c2cc(C(/C=C/c3ccc(C(=O)O)cc3)=N/O)ccc21 , give its measured Ki value.
3000

For the compound CCC1=CC(C)(C)Oc2cc(OC)c(\C(C)=C/C=C/C(C)=C/C(=O)O)cc21 , give its measured Ki value.
8900

For the compound CCN(c1ccc(C(=O)O)cc1)c1cc2c(cc1C)C(C)(C)CCN2C(C)C , give its measured Ki value.
9600

For the compound Cc1ccc(C2=CCC(C)(C)c3cc(C(/C=C/c4ccc(C(=O)O)cc4F)=N\O)ccc32)cc1 , give its measured Ki value.
13000

For the compound CC/C(=C(F)/C=C/C(C)=C/C(=O)O)c1cc2c(c(Cl)c1OC)OC(C)(C)C=C2C(C)C , give its measured Ki value.
47

For the compound CCOc1cc2c(cc1\C(CC)=C(F)/C=C/C(C)=C/C(=O)O)C(C)(C)CCC2(C)C , give its measured Ki value.
152

For the compound CCC1=CC(C)(C)Oc2cc(OC)c(\C(C)=C(F)/C=C/C(C)=C/C(=O)O)cc21 , give its measured Ki value.
4100

For the compound CCCCCCCN1C(=O)CC(C)(C)c2cc(C(/C=C/c3ccc(C(=O)O)cc3)=N\O)ccc21 , give its measured Ki value.
17000

For the compound C/C(=C/C=C(F)/C(C)=C/C(=O)O)c1cc(C(C)(C)C)cc(C(C)(C)C)c1OCC(F)F , give its measured Ki value.
1150

For the compound CCCOc1cc2c(cc1\C(C)=C(F)/C=C/C(C)=C/C(=O)O)C(C(C)C)=CCC2(C)C , give its measured Ki value.
841

For the compound CCOc1cc2c(cc1\C(C)=C(F)/C=C/C(C)=C/C(=O)O)C(c1ccccc1)=CC(C)(C)O2 , give its measured Ki value.
3700
